B1: BRF1 (parent)
chain: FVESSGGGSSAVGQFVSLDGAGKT

Variants of: B1
Test: protein stability index of a GFP-peptide fusion (GPS, HEK-293T) (PSI 1-6); higher = more stable;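 note: lentivirally expressed fusions sorted by FACS into six bins by GFP to DsRed ratio, PSI derived from sequencing read proportions per bin multiplied by bin number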
Details: c terminus: a fixed tail appended
quantity_kind: protein stability index
One number for each entry.

Recorded protein stability index, per entry:
> print(dat)
                     sequence.text            quantity.kind  value.reported
1  FVESSGGGSSAVGQFVVLDGAGKT [S17V]  protein stability index            1.99
2   FVESCGGGSSAVGQFVSLDGAGKT [S5C]  protein stability index            2.03
3  FVESSGGGSSAVGQFVWLDGAGKT [S17W]  protein stability index            2.87
4   VVESSGGGSSAVGQFVSLDGAGKT [F1V]  protein stability index            4.82
5   FVESIGGGSSAVGQFVSLDGAGKT [S5I]  protein stability index            2.24
6   FVESSGGGDSAVGQFVSLDGAGKT [S9D]  protein stability index            3.03

Provide reported protein stability index for each item, in the same order as listed.
1. FVESSGGGPSAVGQFVSLDGAGKT [S9P]
2. FVESSGGGSSAVGQFVSLDGASKT [G22S]
3. FAESSGGGSSAVGQFVSLDGAGKT [V2A]
4. FVESSGGGSSAVGQFVSLDGADKT [G22D]
5. FVELSGGGSSAVGQFVSLDGAGKT [S4L]
6. FVESSGGGSSAVGQFVSLDGARKT [G22R]
7. FVESKGGGSSAVGQFVSLDGAGKT [S5K]

### Response
[1.5, 2.47, 3.78, 3.15, 1.51, 1.87, 2.58]
